Origin of values: paper PMC8068361

# System tested: PLK1(h) (Homo sapiens)
# Construct: purchased Reaction Biology Corp
# Sequence (P53350 whole entry): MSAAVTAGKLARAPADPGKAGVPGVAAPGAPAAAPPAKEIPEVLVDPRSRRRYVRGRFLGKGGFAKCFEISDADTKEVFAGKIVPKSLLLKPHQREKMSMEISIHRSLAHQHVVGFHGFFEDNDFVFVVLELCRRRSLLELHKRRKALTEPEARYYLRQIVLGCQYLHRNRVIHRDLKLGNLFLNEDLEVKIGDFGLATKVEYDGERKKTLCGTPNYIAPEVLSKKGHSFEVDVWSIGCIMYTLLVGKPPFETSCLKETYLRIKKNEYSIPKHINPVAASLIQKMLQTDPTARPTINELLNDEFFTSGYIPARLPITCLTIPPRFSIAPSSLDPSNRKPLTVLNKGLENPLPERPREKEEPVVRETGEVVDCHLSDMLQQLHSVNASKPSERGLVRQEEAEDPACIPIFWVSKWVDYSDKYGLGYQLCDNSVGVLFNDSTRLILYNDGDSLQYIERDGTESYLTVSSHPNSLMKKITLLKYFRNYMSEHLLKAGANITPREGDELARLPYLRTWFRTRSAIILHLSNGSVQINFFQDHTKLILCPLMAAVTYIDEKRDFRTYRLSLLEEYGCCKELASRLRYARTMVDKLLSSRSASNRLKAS
# Protocol notes: PLK1 kinase IC50, Reaction Biology IC50 Profiler Express, 33P-ATP radiometric
# Assay type: biochemical
# Condition parameters: enzymatic; ATP 10 μM, casein substrate
pIC50: −log10 of the molar value.
Readout kind: pIC50

# Molecule, pIC50
rows = [
    ("COc1ccccc1Nc1cc(-n2cc(OCc3ccccc3)c(C(N)=O)n2)ccn1 [Compound 14a]", 5.99),
    ("NC(=O)c1nn(-c2ccnc(Nc3ccccc3)c2)cc1OCc1ccccc1 [Compound 13a]", 5.00),
    ("NC(=O)c1nn(-c2ccnc(Nc3ccccc3)c2)cc1OCc1ccccc1C(F)(F)F [Compound 13b]", 6.07),
]

[A] COc1ccccc1Nc1cc(-n2cc(OCc3ccc(CO)cc3Cl)c(C(N)=O)n2)ccn1
[B] COc1ccccc1Nc1cc(-n2cc(OCc3ccccc3C(F)(F)F)c(C(N)=O)n2)ccn1 [Compound 14b]
Query string: Sort A and B by pIC50 descending and give the first. Refer to your chosen item by its label in the answer.
Result string: A
